The measured values listed here are drawn from PubChem BioAssay.

Tested on: Sonic hedgehog protein (Shh)
method: small-molecule binders of Shh protein, primary screen, biochemical, small-molecule microarray, 635/667 nm fluorescence (AID 1151);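 note: Shh protein binding to compounds spotted on small-molecule microarray slides; score combines spot fluorescence intensity with signal-to-noise across triplicate slides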
applied.conditions: small-molecule microarray binding, 635 nm fluorescence; higher = more signal
recorded.metric: composite z-score
Output: the number by itself.

## Task Please look up its composite z-score: O=C1[C@H]2[C@H]3[C@H](O)[C@H](O)CC(=NOC[C@@H](O)COCc4ccco4)[C@@H]3CC[C@H]2C(=O)N1C[C@@H]1CCCO1
## Result 1.59

## Task Entry CCCCC#C[C@@H]1C=C[C@H](Oc2cc(OC)c(OC)c(OC)c2)[C@@H](COC(=O)OCC)O1 please
## Result 0.375

## Task Entry CC(C)=CCCC(C)=CCON=C1C[C@@H](O)[C@@H](O)[C@@H]2[C@@H]3C(=O)N(C(C)(C)C)C(=O)[C@@H]3CC[C@H]12 please
## Result 0.435

## Task Entry C=Cc1ccc([C@H]2N[C@H](C(=O)O)CC[C@@H]2C)cc1 please
## Result 0.36

----------
experimental.target: NADPH oxidase 4 (Homo sapiens) (UniProt Q9NPH5)
Sequence (Q9NPH5 whole entry, looked up): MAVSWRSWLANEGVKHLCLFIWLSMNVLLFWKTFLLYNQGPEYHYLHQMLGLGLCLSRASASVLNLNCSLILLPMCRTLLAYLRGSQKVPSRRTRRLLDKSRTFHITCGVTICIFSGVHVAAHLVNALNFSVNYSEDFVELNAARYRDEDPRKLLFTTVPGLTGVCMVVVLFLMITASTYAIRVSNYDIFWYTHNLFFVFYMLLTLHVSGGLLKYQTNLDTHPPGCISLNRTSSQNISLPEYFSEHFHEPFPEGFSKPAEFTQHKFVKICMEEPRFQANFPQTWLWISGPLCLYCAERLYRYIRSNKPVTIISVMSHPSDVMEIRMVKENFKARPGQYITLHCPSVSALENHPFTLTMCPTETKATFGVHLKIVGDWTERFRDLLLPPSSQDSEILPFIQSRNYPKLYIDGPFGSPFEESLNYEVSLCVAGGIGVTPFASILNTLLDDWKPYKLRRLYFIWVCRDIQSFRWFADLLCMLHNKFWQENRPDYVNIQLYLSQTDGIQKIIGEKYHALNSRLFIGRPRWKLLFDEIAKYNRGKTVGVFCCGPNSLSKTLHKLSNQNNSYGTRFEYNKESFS
method: NOX4-dependent H2O2 signal modulators, primary screen, NOX inhibitor project, cell-based, HEK293-NOX4, tetracycline-induced, Amplex Red fluorescence (AID 1160)
applied.conditions: 45 min, higher = more signal, called active from +8 up or from −8 down
Everything with z-score lower than 0.3 is 0 (no); everything else, including exactly 0.3, is 1 (yes).

## Task Could you please find out whether CCOC(=O)[C@H](Cc1ccccc1)NC(=O)CCC1CC(OC(=O)NCc2cccc3ccccc23)CC2(CCCC(COC(=O)NCc3cccc(C(F)(F)F)c3)O2)O1 (some centres not stated) has z-score that meets 0.3 or exceeds it?
## Result 0 (no)

## Task Entry COC(=O)[C@H](C)NC(=O)CCC1CC(OC(=O)NCCc2ccc(F)cc2)CC2(CCCC(COC(=O)NCc3cccc(C(F)(F)F)c3)O2)O1 (some centres not stated) please
## Result 0 (no)

## Task Entry CO[C@H]1COC(=O)CC=C[C@H](C)[C@@H](OC)COC(=O)[C@@H](C)NC(=O)CC=C[C@@H]1C please
## Result 1 (yes)

## Task Entry CO[C@H]1COC(=O)[C@@H](Cc2ccccc2)NC(=O)[C@@H](C)COC(=O)CCC[C@@H]1C please
## Result 1 (yes)

## Task Entry CO[C@H]1COC(=O)CC=C[C@H](C)[C@@H](OC)COC(=O)[C@@H](C)COC(=O)CC=C[C@@H]1C please
## Result 0 (no)

## Task Entry C=CC[C@@H]1C=C[C@H](ON=C(C)CCN2CCc3nc(-c4ccccc4)c(-c4ccccc4)cc3C2)[C@@H](CO)O1 please
## Result 0 (no)

## Task Entry O=C1[C@H]2[C@H]3[C@H](O)[C@H](O)CC(=NOCc4ccccc4)[C@@H]3CC[C@H]2C(=O)N1Cc1ccc2c(c1)OCO2 please
## Result 1 (yes)

----------
experimental.target: NADPH oxidase 4 (Homo sapiens) (UniProt Q9NPH5)
method: NOX4-dependent H2O2 signal modulators, primary screen, NOX inhibitor project, cell-based, HEK293-NOX4, tetracycline-induced, Amplex Red fluorescence (AID 1160)
applied.conditions: 45 min, higher = more signal, called active from +8 up or from −8 down
Everything with z-score lower than -0.5 is f; everything else, including exactly -0.5, is t.

## Task Could you please find out whether CCOC(=O)[C@H](CC(C)C)NC(=O)CCC1CC(OC(=O)NCCc2ccc(F)cc2)CC2(CCCC(COC(=O)NCC(c3ccccc3)c3ccccc3)O2)O1 (stereo partly specified) has z-score that meets -0.5 or exceeds it?
## Result t

## Task Entry COc1ccc(O[C@H]2C=C[C@@H](c3ccccc3)O[C@@H]2CON=CC[C@@H]2C=C[C@H](OC(C)=O)[C@@H](COC(C)=O)O2)cc1 please
## Result f

## Task Entry CO[C@H]1COC(=O)[C@@H](C)COC(=O)[C@H](COCc2ccccc2)NC(=O)CC=C[C@H]1C please
## Result t

## Task Entry CO[C@H]1COC(=O)CC=C[C@@H](C)[C@H](NS(=O)(=O)c2ccc(C)cc2)COC(=O)CCC[C@@H]1C please
## Result t

## Task Entry CC(CCN1CCCc2nc(C)c(C)cc21)=NO[C@@H](C)c1cc(-c2c(C)cc(C)cc2C)no1 please
## Result t

## Task Entry O=C1C[C@@H](O)[C@@H](O)[C@@H]2[C@@H]3C(=O)N(C[C@@H]4CCCO4)C(=O)[C@@H]3CC[C@H]12 please
## Result t

## Task Entry CCCNC(=O)OC[C@H]1O[C@H](CCON=C(C)CCC(=O)OC[C@H]2O[C@H](c3ccccc3)C=C[C@@H]2Oc2ccc(OC)cc2)C=C[C@@H]1Oc1ccc(OC)cc1 please
## Result t

## Task Entry CCOC(=O)[C@H](Cc1ccccc1)NC(=O)CCC1CC(OC(=O)NCCc2ccc(F)cc2)CC2(CCCC(COC(=O)NCCOC)O2)O1 (stereo partly specified) please
## Result t

## Task Entry Cc1cc2c(nc1C)CCCCN2CC(C)ON=C[C@@H](C)[C@H](OCc1ccccc1)C(C)C (stereo partly specified) please
## Result t

## Task Entry COCOc1ccc(Br)cc1C(=O)[C@@H]1O[C@H]1c1cccc(OC)c1 please
## Result f

## Task Entry COc1ccc(COC(=O)NN=C2C[C@@H](O)[C@@H](O)[C@@H]3[C@@H]4C(=O)N(c5cccc(Oc6ccccc6)c5)C(=O)[C@@H]4CC[C@@H]23)cc1 please
## Result t

## Task Entry CO[C@@H]1COC(=O)[C@@H](C)COC(=O)[C@@H](C)NC(=O)CC=C[C@@H]1C please
## Result f

## Task Entry C[C@H]1CC[C@H]2C(=O)OC(CO)CN2[C@@H]1c1ccc(Br)cc1 (stereo partly specified) please
## Result f

## Task Entry CON=CC[C@@H]1C=C[C@H](OC(C)=O)[C@@H](COC(C)=O)O1 please
## Result t

## Task Entry CCOC(=O)[C@H](Cc1ccccc1)NC(=O)CCC1CC(OC(=O)NCCc2ccc(F)cc2)CC2(CCCC(COC(=O)NCCc3ccc(Cl)cc3)O2)O1 (stereo partly specified) please
## Result t

## Task Entry COC(=O)CC=C[C@@H](C)[C@@H](C=NO[C@@H](C)c1cn([C@H](CO)Cc2ccccc2)nn1)NS(=O)(=O)c1ccc(C)cc1 please
## Result t
